Hi there, I'd appreciate the recorded pIC50 for every entry that follows.
Molecular target: KRAS G12S (Homo sapiens, UniProt P01116+P62937, G12S)
Sequence (P01116 1-169 isoform P01116-2 G12S limits assumed): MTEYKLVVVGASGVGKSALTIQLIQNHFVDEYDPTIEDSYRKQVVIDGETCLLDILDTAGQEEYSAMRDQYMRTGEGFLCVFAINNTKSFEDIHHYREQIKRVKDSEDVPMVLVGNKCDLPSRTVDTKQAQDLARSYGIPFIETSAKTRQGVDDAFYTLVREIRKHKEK
Sequence (P62937 whole entry): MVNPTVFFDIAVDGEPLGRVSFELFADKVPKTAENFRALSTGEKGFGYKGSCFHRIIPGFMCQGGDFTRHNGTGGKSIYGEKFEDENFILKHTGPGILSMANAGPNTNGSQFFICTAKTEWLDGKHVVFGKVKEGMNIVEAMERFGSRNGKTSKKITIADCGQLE
Assay: Ras-Raf disruption / FRET / MOA assay (BRAF RBD)
Assay type: biochemical
Settings: KRAS G12S FRET data IC50, Ras-Raf disruption, with Cyclophilin A
pIC50: −log10 of the molar value.

Take a look at these entries with their results.
Molecule	Test system	Result
CCn1c(-c2cccnc2[C@H](C)OC)c2c3cc(ccc31)-c1cc(O)cc(c1)C[C@H](NC(=O)[C@H](C(C)C)N(C)C(=O)CN(C)C(=O)[C@@H]1CN1CCOC)C(=O)N1CCC[C@H](N1)C(=O)OCC(C)(C)C2 (stereo partly shown) [Example 160]	KRAS G12S (Homo sapiens, UniProt P01116+P62937, G12S)	7.00 to 8.00
CCn1c(-c2cccnc2[C@H](C)OC)c2c3cc(ccc31)-c1csc(n1)C[C@H](NC(=O)[C@H](C1CCCC1)N(C)C(=O)CN(C)C(=O)[C@@H]1N[C@@H]1C1CC1)C(=O)N1CCC[C@H](N1)C(=O)OCC(C)(C)C2 [Example 210]	KRAS G12S (Homo sapiens, UniProt P01116+P62937, G12S)	5.00 to 6.00
CCn1c(-c2cnccc2COC)c2c3cc(ccc31)-c1cc(O)cc(c1)C[C@H](NC(=O)[C@H](C(C)C)N(C)C(=O)CN(C)C(=O)[C@@H]1N[C@@H]1C(=O)OC)C(=O)N1CCC[C@H](N1)C(=O)OCC(C)(C)C2 [Example 49]	KRAS G12S (Homo sapiens, UniProt P01116+P62937, G12S)	6.00 to 7.00

Which pIC50 is reported for this molecule? CCn1c(-c2cccnc2[C@H](C)OC)c2c3cc(ccc31)-c1cc(O)cc(c1)C[C@H](NC(=O)[C@H](C1CCCC1)N(C)C(=O)CN(C)C(=O)[C@@H]1N[C@@H]1C1(C#N)CC1)C(=O)N1CCC[C@H](N1)C(=O)OCC(C)(C)C2 (single isomer, unassigned) [Example 308]
7.00 to 8.00
